Provenance of the data: PubChem BioAssay (NCATS)

System: 7G8
Experiment: qHTS profiling for inhibitors of Plasmodium falciparum proliferation (AID 504749); further: nearly all actives have a fitted effect of over 60% in size; further: potency means the concentration at half of the fitted maximal effect
Conditions: P. falciparum in erythrocytes, SYBR Green DNA, 72 h; series mostly up to 28.7 µM
Inconclusive results are not listed. The source made the active and inactive calls. The call rests on the fitted dose curve; in most records, active means well fitted inhibition curve with a large enough effect; inconclusive means small, poorly fitted or top-dose-only effect; inactive means flat fitted curve, though single readings scatter.
REPORTED_METRIC: Potency

// known answers, use as guide
[
  {
    "MOLECULE": "O=C(CC1NCCC[C@H]1O)Cn1cnc2cc(Br)c(Cl)cc2c1=O (some centres not stated)",
    "SYSTEM_UNDER_TEST": "7G8",
    "ENDPOINT_VALUE": "1 µM (active)"
  },
  {
    "MOLECULE": "CCCCC(=O)N(Cc1ccc(-c2ccccc2-c2nn[nH]n2)cc1)C(C(=O)O)C(C)C (configuration not stated)",
    "SYSTEM_UNDER_TEST": "7G8",
    "ENDPOINT_VALUE": "11.2 µM (active)"
  },
  {
    "MOLECULE": "CC(C)C[C@@H](NC(=O)[C@H](Cc1ccccc1)NC(=O)c1cnccn1)B(O)O",
    "SYSTEM_UNDER_TEST": "7G8",
    "ENDPOINT_VALUE": "0.0316 µM (active)"
  },
  {
    "MOLECULE": "C/C=C1\\C2C=C(C)CC1(N)c1ccc(=O)[nH]c1C2 (configuration not stated)",
    "SYSTEM_UNDER_TEST": "7G8",
    "ENDPOINT_VALUE": "inactive"
  },
  {
    "MOLECULE": "CC(=O)[C@H]1CC[C@H]2C3CC=C4C[C@@H](O)CC[C@]4(C)C3CC[C@]12C (some centres not stated)",
    "SYSTEM_UNDER_TEST": "7G8",
    "ENDPOINT_VALUE": "inactive"
  }
]

For each entry beneath this line, provide reported Potency.
1. CN1CCN(CCC=C2c3ccccc3Sc3ccc(S(=O)(=O)N(C)C)cc32)CC1
2. COC(=O)[C@@H]1[C@@H]2C[C@H]3c4[nH]c5ccccc5c4CCN3C[C@@H]2CC[C@@H]1O

OUT:
["5.01 µM (active)", "inactive"]

----------
System: CP217
Assay: qHTS profiling for inhibitors of Plasmodium falciparum proliferation (AID 504749); further: nearly all actives have a fitted effect of over 60% in size
Conditions: P. falciparum in erythrocytes, SYBR Green DNA, 72 h; series mostly up to 28.7 µM
Method: NIH National Institute of Allergy and Infectious Diseases [NIAID] NIH Chemical Genomics Center [NCGC] […] Because mature erythrocytes lack DNA, only Plasmodium-derived DNA is detected. NCGC Assay Protocol Summary: The SYBR Green viability assay was adapted from a method described previously (Plouffe et al., 2008). […] The following morning, fluorescence intensity at 485(14) nm excitation and 535(25) nm emission wavelengths was measured on an EnVision (Perkin Elmer) plate reader. […]
Results filed as inconclusive are left out. Activity calls are given as the source filed them. Calls follow the shape of the dose curve; as a rule, active = well fitted inhibition curve with a large enough effect; inconclusive = small, poorly fitted or top-dose-only effect; inactive = flat fitted curve, though single readings scatter.
Log the outcome using a class from active, inactive

[
  {
    "COMPOUND": "CC(C)(O)c1ccccc1CC[C@H](SCC1(CC(=O)O)CC1)c1cccc(/C=C/c2ccc3ccc(Cl)cc3n2)c1",
    "ANSWER_LABEL": "inactive"
  }
]

IN: I would be grateful if you could indicate the recorded call for `COC(=O)[C@@H]1[C@@H]2C[C@H]3c4[nH]c5ccccc5c4CCN3C[C@@H]2CC[C@@H]1O` .
OUT: inactive

IN: I would be grateful if you could indicate the recorded call for CCCCC(=O)N(Cc1ccc(-c2ccccc2-c2nn[nH]n2)cc1)C(C(=O)O)C(C)C (stereo unspecified) .
OUT: inactive

IN: I would be grateful if you could indicate the recorded call for `CC(C)C[C@@H](NC(=O)[C@H](Cc1ccccc1)NC(=O)c1cnccn1)B(O)O` .
OUT: active

IN: I would be grateful if you could indicate the recorded call for C/C=C1\C2C=C(C)CC1(N)c1ccc(=O)[nH]c1C2 (stereo unspecified) .
OUT: inactive

IN: I would be grateful if you could indicate the recorded call for `C[C@@H](C(=O)O)c1ccc(-c2ccccc2)c(F)c1` .
OUT: inactive

----------
Target: Atrial natriuretic peptide receptor 1 (Homo sapiens)
Assay: Natriuretic polypeptide receptor (hNpr1) antagonism - Pilot CMLD screen (AID 1347052);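 further: cGMP level read as GloSensor luciferase luminescence after agonist stimulation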
Details: HEK293 hNpr1 GloSensor cGMP luminescence, ANP-stimulated; series mostly up to 9.22 µM
Results filed as inconclusive are left out. Active and inactive are the calls of the source. Calls follow the shape of the full dose curve.
Log the outcome using a class from active, inactive

[
  {
    "COMPOUND": "C=CCOC(=O)N[C@@H](CCc1ccccc1)C(C(C)=O)C(C)=O",
    "ANSWER_LABEL": "inactive"
  },
  {
    "COMPOUND": "CC1(OC(=O)C2CCCC2)C(=O)C=C2C=C(c3ccsc3)N(CCc3ccccn3)C=C2C1=O (centres undefined)",
    "ANSWER_LABEL": "inactive"
  },
  {
    "COMPOUND": "CCCNC(=O)OC[C@H]1O[C@H](CCON=CC[C@@H]2C=C[C@H](OC(C)=O)[C@@H](COC(C)=O)O2)C=C[C@H]1Oc1ccc(OC)cc1",
    "ANSWER_LABEL": "inactive"
  },
  {
    "COMPOUND": "COC(=O)C1=C(C)N(Cc2ccccc2)C(=NCC(C)C)NC1c1cccc(C(F)(F)F)c1 (centres undefined)",
    "ANSWER_LABEL": "inactive"
  },
  {
    "COMPOUND": "O=P1(O)Oc2c(-c3ccccc3)cc3ccccc3c2-c2c(c(-c3ccccc3)cc3ccccc23)O1",
    "ANSWER_LABEL": "inactive"
  }
]

IN: I would be grateful if you could indicate the recorded call for `C=CCNC(=O)[C@H]1C=C(OC)C(=O)C[C@H]2c3ccccc3C[C@]12C` .
OUT: inactive

IN: I would be grateful if you could indicate the recorded call for CC1(OC(=O)C2CCCC2)C(=O)C=C2C=C(c3ccsc3)N(c3cccc(C#N)c3)C=C2C1=O (centres undefined) .
OUT: active

IN: I would be grateful if you could indicate the recorded call for C=CCN1C(=O)[C@]2(O[C@H](C)CC3=CCCC32)c2c(Br)cccc21 (some centres undefined) .
OUT: inactive

IN: I would be grateful if you could indicate the recorded call for `COc1ccc2c(c1)O[C@H](c1ccc3c(c1)OCO3)[C@@H](OC(=O)Nc1cc(OC)c(OC)c(OC)c1)C2=O` .
OUT: inactive

----------
System: P93_24
Assay: qHTS profiling for inhibitors of Plasmodium falciparum proliferation (AID 504749); further: nearly all actives have a fitted effect of over 60% in size
Conditions: P. falciparum in erythrocytes, SYBR Green DNA, 72 h; series mostly up to 28.7 µM
Results filed as inconclusive are left out. Activity calls are given as the source filed them. Calls follow the shape of the dose curve; as a rule, active = well fitted inhibition curve with a large enough effect; inconclusive = small, poorly fitted or top-dose-only effect; inactive = flat fitted curve, though single readings scatter.
Log the outcome using a class from yes for active, no for inactive

Worked cases, answers included:
[
  {
    "COMPOUND": "C[C@@H](C(=O)O)c1ccc(-c2ccccc2)c(F)c1",
    "ANSWER_LABEL": "no"
  },
  {
    "COMPOUND": "CC(C)(O)c1ccccc1CC[C@H](SCC1(CC(=O)O)CC1)c1cccc(/C=C/c2ccc3ccc(Cl)cc3n2)c1",
    "ANSWER_LABEL": "no"
  },
  {
    "COMPOUND": "CC(=O)[C@H]1CC[C@H]2C3CC=C4C[C@@H](O)CC[C@]4(C)C3CC[C@]12C (stereo partly specified)",
    "ANSWER_LABEL": "no"
  },
  {
    "COMPOUND": "COC(=O)[C@@H]1[C@@H]2C[C@H]3c4[nH]c5ccccc5c4CCN3C[C@@H]2CC[C@@H]1O",
    "ANSWER_LABEL": "no"
  },
  {
    "COMPOUND": "O=C(CC1NCCC[C@H]1O)Cn1cnc2cc(Br)c(Cl)cc2c1=O (stereo partly specified)",
    "ANSWER_LABEL": "yes"
  }
]

IN: I would be grateful if you could indicate the recorded call for `CN1CCN(CCC=C2c3ccccc3Sc3ccc(S(=O)(=O)N(C)C)cc32)CC1` .
OUT: yes

----------
Test: P-glycoprotein substrates identified in KB-8-5-11 adenocarcinoma cell line, qHTS therapeutic library screen (AID 1346987); further: nearly all actives have a fitted effect of over 65% in size
Settings: KB-8-5-11 (P-gp overexpressing) viability, CellTiter-Glo, 72 h; series mostly up to 44.5 µM
Records with an inconclusive call do not appear. Active and inactive are the calls of the source. Calls follow the shape of the dose curve; as a rule, active = well fitted inhibition curve with a large enough effect; inconclusive = small, poorly fitted or top-dose-only effect; inactive = flat fitted curve, though single readings scatter.
Log the outcome using a class from TRUE (active), FALSE (inactive)

Worked cases, answers included:
[
  {
    "MOLECULE": "OC(CNCCc1c[nH]c2ccccc12)Cn1c2ccccc2c2ccccc21 (centres undefined)",
    "ANSWER_LABEL": "TRUE"
  },
  {
    "MOLECULE": "COc1ccc2c(c1)CN(C(=O)CCN1CCC(Cc3ccccc3)CC1)CCS2",
    "ANSWER_LABEL": "TRUE"
  },
  {
    "MOLECULE": "CC1=CC(=O)C(C(C)C)=CC1=O",
    "ANSWER_LABEL": "FALSE"
  },
  {
    "MOLECULE": "CS(=O)(=O)c1ccc([C@@H](C[C@H]2CCC(=O)C2)C(=O)Nc2cnccn2)cc1Cl",
    "ANSWER_LABEL": "FALSE"
  },
  {
    "MOLECULE": "C=C1[C@@H](C)[C@H]2[C@H](Cc3c[nH]c4ccccc34)NC(=O)[C@]23C(=O)/C=C/C(=O)[C@H](O)/C(C)=C\\[C@@H](C)C/C=C/[C@H]3[C@@H]1O",
    "ANSWER_LABEL": "FALSE"
  },
  {
    "MOLECULE": "COC[C@H](C)Oc1cc(O[C@@H](C)Cc2ccccc2)cc(C(=O)Nc2ccc(C(=O)O)cn2)c1",
    "ANSWER_LABEL": "FALSE"
  },
  {
    "MOLECULE": "COc1cc(N2CCN(C)CC2)ccc1Nc1nccc(-c2cn(C)c3cnccc23)n1",
    "ANSWER_LABEL": "TRUE"
  },
  {
    "MOLECULE": "O=C(Nc1cc(Oc2cc(F)c(NC(=O)C3(C(=O)Nc4ccc(F)cc4)CC3)cc2F)ccn1)C1CC1",
    "ANSWER_LABEL": "TRUE"
  },
  {
    "MOLECULE": "C=CCN(/C=C1\\C(=O)OC(COC)C2(C)C1=C(O)C(=O)C1=C2C(OC(C)=O)CC2(C)C(=O)CCC12)CC=C (centres undefined)",
    "ANSWER_LABEL": "FALSE"
  },
  {
    "MOLECULE": "O=C(Nc1cccc(Nc2nccc(Nc3cccc(C(F)(F)F)c3)n2)c1)C1CC1",
    "ANSWER_LABEL": "TRUE"
  }
]

IN: I would be grateful if you could indicate the recorded call for `CN(C)C(=O)c1cc2cnc(Nc3ccc(N4CCNCC4)cn3)nc2n1C1CCCC1` .
OUT: FALSE

IN: I would be grateful if you could indicate the recorded call for `CN(C)CCCCCCNC(=O)c1cccc(-c2cc(O)c3ncccc3c2)c1` .
OUT: TRUE

IN: I would be grateful if you could indicate the recorded call for `C=C(C)C(=O)O[C@H]1[C@H]2C(=C)C(=O)O[C@@H]2C[C@@H](C)/C=C\C(=O)[C@](C)(O)[C@@H]1OC(C)=O` .
OUT: TRUE

IN: I would be grateful if you could indicate the recorded call for `Cc1nc(CN(C)c2ncnc3ccc(-c4ccc5c(c4)OCO5)cc23)cs1` .
OUT: TRUE

IN: I would be grateful if you could indicate the recorded call for `N#Cc1cccc(C#N)c1-c1nc2c3ccccc3c3cc(Cl)ccc3c2[nH]1` .
OUT: TRUE

IN: I would be grateful if you could indicate the recorded call for `C=CC(=O)Nc1cccc(C)c1Nc1ncc2cc(-c3c(Cl)c(OC)cc(OC)c3Cl)ccc2n1` .
OUT: TRUE
